assay: MALDI-FTICR imaging quantitation of DFMO in whole-body sections of Th-MYCN mice; type: in vivo, mouse; conditions: male, Th-MYCN, mouse, cardiac blood, oral, 40 mg/day, DFMO in cardiac blood, combination and single administration regimens
ENDPOINT NAME: concentration at 96 h

Record NCCCC(N)(C(=O)O)C(F)F (stereo not shown) , field concentration at 96 h: 16000 to 35000 ng/g

====

test: clinical; details: human, plasma, oral, Cmax Mean, Part 1 Cohort 2, 160 mg QD, Cycle 1 Day 28, +DFMO 500 mg/day
ENDPOINT NAME: Cmax (ng/mL)
Numeric only. Scale: ng/mL

Record `CCCCCCCCCCCCCCCC(=O)NCCCC[C@@H](N)C(=O)NCCCNCCCCNCCCN` , field Cmax: 23.7

====

Test: clinical
Conditions: human, plasma, oral, 1800 mg, Cmax Mean, Part 1 Cohort 5, 1800 mg QD, Cycle 2 Day 14, n=1
Method: Clinical Trial Outline. […] All solid tumor types are eligible for the trial. […] An expansion cohort was included at the RP2D level to confirm safety and tolerability of the combination. […] Plasma samples were analyzed for AMXT 1501 concentration via a LC/MS^2 procedure (MI-0028-DB-AB; Agilux Laboratories, Worcester, Massachusetts), and the resulting concentration versus time data were used to estimate individual PK parameters using noncompartmental analysis (NCA).
ENDPOINT NAME: Cmax (ng/mL)
Numeric only. Scale: ng/mL

Record `CCCCCCCCCCCCCCCC(=O)NCCCC[C@@H](N)C(=O)NCCCNCCCCNCCCN` , field Cmax: 1950

====

experiment: clinical; conditions: human, plasma, oral, AUC0-6 hr Median, Part 1 Cohort 2, 160 mg QD, Cycle 1 Day 28, +DFMO 500 mg/day
ENDPOINT NAME: AUC(0-t) (ng·h/mL)
Numeric only. Scale: ng·h/mL

Record `CCCCCCCCCCCCCCCC(=O)NCCCC[C@@H](N)C(=O)NCCCNCCCCNCCCN` , field AUC(0-t): 84.8

====

assay: clinical; details: human, plasma, oral, 1800 mg, Cmax Mean, Part 1 Cohort 5, 1800 mg QD, Cycle 1 Day 14
ENDPOINT NAME: Cmax
Form field: result (number plus unit)

Record `CCCCCCCCCCCCCCCC(=O)NCCCC[C@@H](N)C(=O)NCCCNCCCCNCCCN` , field Cmax: 794 ng/mL

====

assay: clinical; settings: human, plasma, oral, 80 mg, Cmax Median, Part 1 Cohort 1, 80 mg QD, Cycle 1 Day 14
ENDPOINT NAME: Cmax

Record CCCCCCCCCCCCCCCC(=O)NCCCC[C@@H](N)C(=O)NCCCNCCCCNCCCN [AMXT 1501, D-lys(palmitoyl)-spermine] , field Cmax: 13.8 ng/mL

====

test: clinical; conditions: human, plasma, oral, 400 mg, AUC0-6 hr Mean, Part 1 Cohort 3, 400 mg QD, Day 1
ENDPOINT NAME: AUC(0-t) (ng·h/mL)
Numeric only. Scale: ng·h/mL

Record `CCCCCCCCCCCCCCCC(=O)NCCCC[C@@H](N)C(=O)NCCCNCCCCNCCCN` , field AUC(0-t): 183

====

assay: clinical; settings: human, plasma, oral, 80 mg, AUC0-6 hr Mean, Part 1 Cohort 1, 80 mg QD, Cycle 1 Day 1
ENDPOINT NAME: AUC(0-t) (ng·h/mL)
Numeric only. Scale: ng·h/mL

Record `CCCCCCCCCCCCCCCC(=O)NCCCC[C@@H](N)C(=O)NCCCNCCCCNCCCN` , field AUC(0-t): 29.6

====

Experiment: clinical
Settings: human, plasma, oral, 160 mg, Cmax Mean, Part 1 Cohort 2, 160 mg QD, Cycle 1 Day 14
Protocol: Clinical Trial Outline. […] All solid tumor types are eligible for the trial. […] An expansion cohort was included at the RP2D level to confirm safety and tolerability of the combination. […] Plasma samples were analyzed for AMXT 1501 concentration via a LC/MS^2 procedure (MI-0028-DB-AB; Agilux Laboratories, Worcester, Massachusetts), and the resulting concentration versus time data were used to estimate individual PK parameters using noncompartmental analysis (NCA).
ENDPOINT NAME: Cmax (ng/mL)
Numeric only. Scale: ng/mL

Record CCCCCCCCCCCCCCCC(=O)NCCCC[C@@H](N)C(=O)NCCCNCCCCNCCCN [AMXT 1501, D-lys(palmitoyl)-spermine] , field Cmax: 14.1

====

test: clinical; details: human, plasma, oral, 1200 mg, Tmax Median, Part 1 Cohort 4, 1200 mg QD, Cycle 1 Day 14
ENDPOINT NAME: Tmax
Form field: result (number plus unit)

Record `CCCCCCCCCCCCCCCC(=O)NCCCC[C@@H](N)C(=O)NCCCNCCCCNCCCN` , field Tmax: 6 h

====

experiment: clinical; settings: human, plasma, oral, 80 mg, AUC0-6 hr Mean, Part 1 Cohort 1, 80 mg QD, Cycle 1 Day 14
ENDPOINT NAME: AUC(0-t) (µg·h/mL)
Numeric only. Scale: µg·h/mL

Record CCCCCCCCCCCCCCCC(=O)NCCCC[C@@H](N)C(=O)NCCCNCCCCNCCCN [AMXT 1501, D-lys(palmitoyl)-spermine] , field AUC(0-t): 0.091

====

experiment: clinical; settings: human, plasma, oral, 1800 mg, Cmax Median, Part 1 Cohort 5, 1800 mg QD, Cycle 1 Day 14
ENDPOINT NAME: Cmax (ng/mL)
Numeric only. Scale: ng/mL

Record `CCCCCCCCCCCCCCCC(=O)NCCCC[C@@H](N)C(=O)NCCCNCCCCNCCCN` , field Cmax: 766

====

test: in vivo; conditions: male, Th-MYCN, mouse, myocardium, subcutaneous, 2.5 mg/kg
ENDPOINT NAME: concentration at 96 h (ng/g)
Numeric only. Scale: ng/g

Record CCCCCCCCCCCCCCCC(=O)NCCCC[C@@H](N)C(=O)NCCCNCCCCNCCCN [AMXT 1501, D-lys(palmitoyl)-spermine] , field concentration at 96 h: 9590

====

assay: in vivo; settings: male, Th-MYCN, mouse, tumor, sc, 2.5 mg/kg
ENDPOINT NAME: concentration at 96 h (ng/g)
Numeric only. Scale: ng/g

Record `CCCCCCCCCCCCCCCC(=O)NCCCC[C@@H](N)C(=O)NCCCNCCCCNCCCN` , field concentration at 96 h: 10000

====

experiment: in vivo; settings: BALB/c, mouse, plasma, sc, 2.5 mg/kg
ENDPOINT NAME: AUC(0-inf) (ng·h/mL)
Numeric only. Scale: ng·h/mL

Record CCCCCCCCCCCCCCCC(=O)NCCCC[C@@H](N)C(=O)NCCCNCCCCNCCCN [AMXT 1501, D-lys(palmitoyl)-spermine] , field AUC(0-inf): 8890

====

experiment: clinical; conditions: human, plasma, oral, Tmax Median, Part 1 Cohort 3, 400 mg QD, Cycle 1 Day 28, +DFMO 500 mg/day
ENDPOINT NAME: Tmax (h)
Numeric only. Scale: h

Record `CCCCCCCCCCCCCCCC(=O)NCCCC[C@@H](N)C(=O)NCCCNCCCCNCCCN` , field Tmax: 6

====

experiment: in vivo; details: male, Th-MYCN, mouse, cardiac blood, sc, 2.5 mg/kg
ENDPOINT NAME: concentration at 96 h (ng/g)
Numeric only. Scale: ng/g

Record `CCCCCCCCCCCCCCCC(=O)NCCCC[C@@H](N)C(=O)NCCCNCCCCNCCCN` , field concentration at 96 h: 8370

====

assay: in vivo; conditions: male, Th-MYCN, mouse, myocardium, sc, 2.5 mg/kg
ENDPOINT NAME: concentration at 96 h

Record `CCCCCCCCCCCCCCCC(=O)NCCCC[C@@H](N)C(=O)NCCCNCCCCNCCCN` , field concentration at 96 h: 8440 ng/g

====

test: MALDI-FTICR imaging quantitation of DFMO in whole-body sections of Th-MYCN mice; assay type: in vivo, mouse; details: male, Th-MYCN, mouse, liver, oral, 1 % in drinking water, DFMO in Liver, DFMO alone 1% in drinking water; mice 049, 082; 96 h
ENDPOINT NAME: concentration at 96 h (ng/g)
Numeric only. Scale: ng/g

Record NCCCC(N)(C(=O)O)C(F)F (stereo not shown) [DFMO, difluoromethylornithine] , field concentration at 96 h: 36100

====

experiment: clinical; conditions: human, plasma, oral, AUC0-t Median, Part 1 Cohort 1, 80 mg QD, Cycle 1 Day 28, +DFMO 500 mg/day
ENDPOINT NAME: AUC(0-t)

Record `CCCCCCCCCCCCCCCC(=O)NCCCC[C@@H](N)C(=O)NCCCNCCCCNCCCN` , field AUC(0-t): 62.9 ng·h/mL

====

assay: clinical; details: human, plasma, oral, 1200 mg, AUC0-t Mean, Part 1 Cohort 4, 1200 mg QD, Cycle 1 Day 14
ENDPOINT NAME: AUC(0-t)
Form field: result (number plus unit)

Record `CCCCCCCCCCCCCCCC(=O)NCCCC[C@@H](N)C(=O)NCCCNCCCCNCCCN` , field AUC(0-t): 4700 ng·h/mL
